Test system: RXF 393 renal
Assay: NCI tumour cell line growth inhibition, 48 h
Entries and their measured GI50 follow.
Property Label: GI50

Smiles: CC1(C)N=C(N)N=C(N)N1c1cccc(CCCCc2cccc(S(=O)(=O)F)c2)c1
Tested System: RXF 393 renal
Measurement: 2130 nM

Smiles: Cn1cc(-c2ccc3c(Nc4cccc(NC(=O)Nc5cccc(F)c5)c4)ncnc3c2)cn1
Tested System: RXF 393 renal
Measurement: 1200 nM

Smiles: C/C(=N\NC(=O)c1sc(=S)n(C)c1N)c1cc2ccccc2o1
Tested System: RXF 393 renal
Measurement: 13200 nM

----------
Tested on: HCT-15 colon
Assay: NCI tumour cell line growth inhibition, 48 h
Property: GI50; scope: individual compounds

Smiles: CCCCC[C@H](O)/C=C/[C@@H]1[C@@H](C/C=C\CCCC(=O)O)[C@@H](O)C[C@H]1O
GI50: > 100 µM

Smiles: O=C(Nc1ccc(Cl)c(Cl)c1)c1cccc(NC2=C(Cl)C(=O)N(Cc3ccccc3)C2=O)c1
GI50: 36.6 µM

Smiles: C/C(=N\NC(=O)c1sc(=S)n(C)c1N)c1cc2ccccc2o1
GI50: 10.6 µM

Smiles: O=C1C(Cl)=C(Nc2cccc(Cl)c2)C(=O)N1Cc1ccccc1
GI50: 10.8 µM

Smiles: COc1ccc(-c2cc(-c3cc(Cl)ccc3Cl)nc3n[nH]c(N)c23)cc1
GI50: 11.6 µM

Smiles: COc1ccc(OC)c(/C=N/NC(=O)Cc2csc3nc(-c4ccc(Br)cc4)cn23)c1
GI50: 7.42 µM

Smiles: CC1(C)N=C(N)N=C(N)N1c1cccc(CCCCc2cccc(S(=O)(=O)F)c2)c1
GI50: 14.1 µM

Smiles: C=CC[n+]1c(/C=C/C=C2\N(C)c3ccccc3C2(C)C)sc2ccc(OC)cc21
GI50: 2.82 µM

Smiles: FC(F)(F)c1nc(N2CCCC2)ncc1-c1nnnn1-c1ccc(Cl)cc1
GI50: 28.5 µM

Smiles: NCCNc1c2c(c(NCCN)c3c(CO)c[nH]c13)C(=O)c1ccccc1C2=O
GI50: > 100 µM

Smiles: Nc1c(C(=O)c2cccc(CCCN3CCOCC3)c2)cnn1-c1ccc(F)cc1
GI50: > 25 µM

----------
Here the recorded TGI is given for each entry.
Tested on: HL-60(TB) leukemia
Experiment: NCI tumour cell line growth inhibition, 48 h

Compound: CCCCON(OC(=O)c1ccccc1)C(=O)c1ccccc1
Tested System: HL-60(TB) leukemia
U: µM
Inequality Symbol: >
TGI: 100
//
Compound: CCOC(=O)NC(Nc1ncccn1)(C(F)(F)F)C(F)(F)F
Tested System: HL-60(TB) leukemia
U: µM
Inequality Symbol: >
TGI: 100
//
Compound: Cc1ccc(C2=Nc3cc(C)c(Cl)cc3S(=O)(=O)NN2)cc1
Tested System: HL-60(TB) leukemia
U: µM
Inequality Symbol: =
TGI: 90.7
//
Compound: Cc1c(C#N)c2nnn(-c3ccc(Cl)cc3)c(=O)n2c1-c1ccccc1
Tested System: HL-60(TB) leukemia
U: µM
Inequality Symbol: >
TGI: 57.3
//
Compound: CC(C)/C=C1\CCC(CN2CCCC2)C1=O (centres undefined)
Tested System: HL-60(TB) leukemia
U: µM
Inequality Symbol: =
TGI: 14.4
//
Compound: Cc1c2cc[n+](C)cc2c(C)c2c1sc1ccccc12
Tested System: HL-60(TB) leukemia
U: µM
Inequality Symbol: =
TGI: 28.4
//
Compound: Cc1ccc(S(=O)(=O)N[C@H](C(=O)O)c2ccccc2)cc1
Tested System: HL-60(TB) leukemia
U: µM
Inequality Symbol: >
TGI: 100
//
Compound: O=C(Nc1cccc(-n2ccc3c(NC(=O)c4ccccc4)nccc32)c1)c1ccc(N2CCOCC2)c(C(F)(F)F)c1
Tested System: HL-60(TB) leukemia
U: µM
Inequality Symbol: =
TGI: 4.82
//
Compound: CCNC(=O)[C@@H]1CCCN2C(=O)CC[C@H](NC(=O)[C@H](Cc3ccc(OP(=O)(O)O)cc3)NC(C)=O)C(=O)N12
Tested System: HL-60(TB) leukemia
U: µM
Inequality Symbol: >
TGI: 25
